Tested on: OVCAR-8 ovarian
Experiment: NCI tumour cell line growth inhibition, 48 h
measurement_label: TGI

{"compound": "CCC(CCCC[C@H]1CC[C@@H]2CC(=O)C[C@H]12)OC (stereo partly specified)", "test_system": "OVCAR-8 ovarian", "measurement_label": "TGI", "assay_value": "> 100 µM"}

Q: Sample O=C1N(c2ccc(Cl)cc2)C(=O)C2(SC=NN2Cc2ccccc2)N1c1ccc(Cl)cc1 (stereo unspecified) — what was its TGI?
A: > 100 µM

Q: Sample COc1cc2c(c3oc4c(O)cccc4c(=O)c13)CC(C(C)(O)CCl)O2 (stereo unspecified) — what was its TGI?
A: 7.94 µM

Q: Sample CCCC(O)c1ccc2[nH]c3c(C)cc([N+](=O)[O-])c(C)c3c2c1 (stereo unspecified) — what was its TGI?
A: > 100 µM

Q: Sample O=C(O)c1ccccc1Sc1ccc(C=C2NC(=S)N(c3ccccc3)C2=O)s1 — what was its TGI?
A: > 100 µM

Q: Sample N#Cc1sc2nc3c(c(-c4ccccc4)c2c1N)CCCC3 — what was its TGI?
A: > 100 µM

Q: Sample C1CCC(CC2CCC(NC3=NCCO3)CC2)CC1 (stereo unspecified) — what was its TGI?
A: 30.9 µM

Q: Sample CN(N=O)c1ccc(/C=C/c2ccnc3ccccc23)cc1 — what was its TGI?
A: > 100 µM

Q: Sample COc1ccc2nc(-c3ccc(N)cc3)sc2c1 — what was its TGI?
A: > 100 µM

Q: Sample O=C(NCC(O)COc1ccccc1)c1ccccc1O (stereo unspecified) — what was its TGI?
A: > 100 µM

Q: Sample O=C(CC(C(=O)c1ccsc1)c1cccs1)c1cccs1 (stereo unspecified) — what was its TGI?
A: > 100 µM
